Some molecules, each annotated with its measured composite z-score.
- Protocol summary: small-molecule microarray binders of probe aCHRDL2, primary screen, biochemical, biotinylated probe, 635/667 nm fluorescence (AID 1100)
- Experimental context: higher = more signal
Measurement name: composite z-score

1) O=C(NCc1ccccc1)[C@@]1(CCS(=O)(=O)c2ccccc2)N=C(c2ccc(OCCCO)cc2)O[C@H]1c1ccccc1 | 1.03
2) CC(=O)NCCCC[C@@H]1NC(=O)[C@@H]2C[C@H](C(=O)NCCCCCCNC(=O)CS)[C@H](c3cccc(OCCO)c3)N2C1=O | 0.466
3) COCCOC(=O)N1C(=O)[C@@]2(c3cc(C#CCCO)ccc31)[C@H](C(=O)Nc1nc3ccccc3s1)[C@H]1C(=O)O[C@H](c3ccccc3)[C@H](c3ccccc3)N1[C@@H]2c1ccc(OCCO)cc1 | -0.284

---

- Test system: Neuregulin-1 EGF-like domain
- Protocol summary: binders of neuregulin-1 EGF-like domain, primary screen, biochemical, small-molecule microarray, 635 nm fluorescence (AID 1081);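 also: binding of the protein to compounds printed on small-molecule microarray slides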
- Experimental context: small-molecule microarray binding, higher = more signal
Measurement name: composite z-score

1) CCOC(=O)C[C@H]1[C@H](OC(=O)c2cc3ccccc3oc2=O)[C@@H](NC(=O)Cc2ccc(OC)cc2)c2cc(OCCCO)ccc2N1C(=O)c1ccccc1 | 0.385
2) CC(C)C[C@@H]1NC(=O)[C@@H]2C[C@H](C(=O)NCCCCCN)[C@H](c3cccc(OCCO)c3)N2C1=O | 1.29
3) CCCCCCC#C[Si](O[C@H](c1ccccc1)c1cn([C@H](CO)Cc2ccccc2)nn1)(C(C)C)C(C)C | 1
4) CCCCC(O)C1C=CC2C(=O)N(c3ccccc3)C(=O)C2N1Nc1ccccc1F (centres undefined) | 1.2
5) COc1cc(OC)c(C(O)C2C=CC3C(=O)NC(=O)C3N2Nc2ccc(Cl)cc2Cl)cc1Br (centres undefined) | 1.11
6) CC(C)[C@@H](CO)NC(=O)[C@H]1[C@@H](c2ccccc2)N(c2ccccc2)O[C@@H]1C | 0.396
7) C=CCOC(=O)[C@H]1[C@@H]2C(=O)O[C@@H](c3ccccc3)[C@@H](c3ccccc3)N2[C@@H](c2ccc(OCCOC(=O)[C@@H]3C[C@@H]4C(=O)N[C@@H](CCCC[N+](C)(C)C)C(=O)N4[C@@H]3c3ccc(O)cc3)cc2)[C@]12C(=O)Nc1ccccc12 | 1.15
8) [N-]=[N+]=NCc1ccccc1C[C@]1(C(=O)O)N=C(c2ccc(OCCCO)cc2)O[C@H]1c1ccccc1N=[N+]=[N-] | 1.25
9) COCCOC(=O)N1C(=O)[C@@]2(c3cc(C#CCCO)ccc31)[C@H](C(=O)Nc1nc3ccccc3s1)[C@H]1C(=O)O[C@H](c3ccccc3)[C@H](c3ccccc3)N1[C@@H]2c1ccc(OCCO)cc1 | 1.07
10) COC(=O)[C@@]1(Cc2ccc(F)cc2)[C@@H]2[C@@H](CC(=O)[C@H]2CC(=O)C(=O)N(C)C)CN1C(=O)c1ccccc1 | 1.18
11) COCCCNC(=O)C1N=C(c2ccc(OCCCO)cc2)N(c2ccccc2)O1 (centres undefined) | 0.609
12) CN1C(=O)C2C=CC(C(O)c3ccc(-c4ccccc4)s3)N(N(c3ccccc3)c3ccccc3)C2C1=O (centres undefined) | 0.949
13) COc1ccc([C@H]2OC[C@@H]3CC4(CC=CC4)C(=O)N32)cc1 | 1
14) NC(=O)[C@@H]1[C@H]2C(=O)O[C@H](c3ccccc3)[C@H](c3ccccc3)N2[C@H](c2ccc(O)cc2)[C@@]12C(=O)Nc1ccc(C#CC3(O)CCCCCC3)cc12 | 1.42
15) O=C1O[C@@H](c2ccccc2)[C@@H](c2ccccc2)N2[C@@H](c3ccc(OCCO)cc3)[C@]3(C(=O)Nc4ccccc43)[C@@H](C(=O)NC[C@H](O)c3ccccc3)[C@H]12 | 1.26
16) C=CCNC(=O)[C@H]1[C@@H]2C(=O)O[C@@H](c3ccccc3)[C@@H](c3ccccc3)N2[C@@H](c2ccc(OCCO)cc2)[C@]12C(=O)N(C(=O)OCCOC)c1ccccc12 | 1.38
17) CC(C)c1ccc(NN2C(C(O)C(c3ccccc3)c3ccccc3)C=CC3C(=O)N(c4ccccc4)C(=O)C32)cc1 (centres undefined) | 1.26
18) C=C(COC)/C(=C/C[C@H](OC(=O)c1ccncc1)c1ccc(OCCO)cc1)c1cnc2ccccc2c1 | 1.14
19) CCOC(=O)C[C@H]1[C@H](OC(=O)Cc2ccc3c(c2)OCO3)[C@@H](NC(=O)c2ccc(-c3ccccc3)cc2)c2cc(OCCCO)ccc2N1C(=O)c1ccc2ccccc2n1 | 0.167
20) O=C1C[C@]2(c3ccc([N+](=O)[O-])cc3)C(=O)N(CCN3CCOCC3)c3cc(CO)ccc3[C@H]2N1C1CCCCC1 | -0.251
21) COCCOC(=O)N1C(=O)[C@@]2(c3cc(C#CCNC(N)=O)ccc31)[C@H](C(=O)NC[C@H](O)c1ccccc1)[C@H]1C(=O)O[C@H](c3ccccc3)[C@H](c3ccccc3)N1[C@@H]2c1ccccc1OCCO | 1.09
22) COC(=O)[C@@]1(Cc2ccccc2)[C@H]2c3cc(C(=O)N(C)C)n(CCSCCO)c3C[C@H]2CN1C(=O)c1ccccc1 | 1.24
23) COC(=O)[C@@]1(Cc2ccc(F)cc2)[C@H]2c3cc(C(=O)N(C)C)n(CC4CC4)c3C[C@H]2CN1C(=O)c1ccccc1 | 1.26
24) O=C1C2C=CC(C(O)c3ccc(F)cc3)N(Nc3ccccc3F)C2C(=O)N1c1ccccc1 (centres undefined) | 1.23

---

Some compounds, each annotated with its measured composite z-score.
- Target or system: Follistatin (Homo sapiens)
- Protocol summary: follistatin binders on small-molecule microarrays, primary screen, biochemical, small-molecule microarray, 635/667 nm fluorescence (AID 1132)
- Experimental context: FST binding, 635 nm fluorescence, higher = more signal
Measurement name: composite z-score

1) Cc1ccc(S[C@]2(C(=O)NCCN3CCOCC3)CC(=O)N(Cc3ccccc3Cl)[C@@H]2c2ccc(CO)cc2)cc1 | 0.157
2) C#CCN(CC1=CCCCC1)[C@H](c1ccccc1Br)[C@@H](O)Cc1ccccc1 | -0.688
3) C=CC[C@@]1(C(=O)N(C)C)N=C(c2ccc(OCCCO)cc2)O[C@@H]1c1ccccc1N=[N+]=[N-] | 1.28
4) C[C@@H]1ON(c2cccc(C(=O)OC(C)(C)C)c2)[C@H](c2ccc(Br)cc2)[C@H]1C(=O)N1C(=O)OC[C@H]1Cc1ccccc1 | 1.21
5) CN1C(=O)C2C=CC(C(O)C3CCCCC3)N(Nc3ccc([N+](=O)[O-])cc3[N+](=O)[O-])C2C1=O (stereo not drawn) | 1.07
6) CN1C2C=C(CCCO)C(C3C(=O)N(C(N)=O)C(=O)C32)C1c1ccc(CN2CCCC2)cc1 (stereo not drawn) | -0.0168
7) COC(=O)[C@@]1(Cc2ccc(F)cc2)[C@H]2c3cc(C(=O)N(C)C)n(Cc4ccc(S(C)(=O)=O)cc4)c3C[C@H]2CN1C(=O)c1ccccc1 | 0.158
8) CCc1oc(CC[C@@H](CO)NC(=O)NCCn2cc(C3(O)CCCCC3)nn2)c(C(=O)OC)c1C(=O)OC | 1.28

---

Some molecules, each annotated with its measured composite z-score.
- Protocol summary: binders of probe aHhip on microarray, primary screen, stem cell growth factor project, biochemical, small-molecule microarray, fluorescence 635/667 (AID 1087);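 also: score merges spot fluorescence at 667nm with spot signal to noise ratio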
- Experimental context: higher = more signal
Measurement name: composite z-score

1. CCOC(=O)C[C@H]1[C@H](OC(=O)Cc2ccc3c(c2)OCO3)[C@@H](NC(=O)c2ccc(-c3ccccc3)cc2)c2cc(OCCCO)ccc2N1C(=O)c1ccc2ccccc2n1 | -0.236
2. C=C/C=C/[C@H]1C(=C)CN([C@@H](Cc2ccccc2)C(=O)OC)[C@@H]1[C@H](O)Cc1ccccc1 | -0.455
3. C=CCNC(=O)[C@@H]1[C@H]2C(=O)O[C@H](c3ccccc3)[C@H](c3ccccc3)N2[C@H](c2ccc(OCCO)cc2)[C@@]12C(=O)Nc1ccc(C#CCCO)cc12 | -0.138
4. O=C1C2C=CC(C(O)C3CCCCC3)N(Nc3ccc([N+](=O)[O-])cc3)C2C(=O)N1c1ccccc1 (configuration not stated) | -0.236
5. O=C1OCCC=C[C@H]2OC34C=CCN(CCN5CCOCC5)C(=O)[C@H]3N(CCCCCCO)C(=O)[C@@H]4C12 (some centres not stated) | -0.169
6. C=CC[C@@]1(C(N)=O)N=C(c2ccc(OCCCO)cc2)O[C@@H]1c1ccccc1CN=[N+]=[N-] | 0.0053
7. C=CC[C@@]1(C(=O)NCc2ccccc2)N=C(c2ccc(OCCCO)cc2)O[C@@H]1c1ccccc1N=[N+]=[N-] | 0.111

---

- Target or system: Concanavalin-A (Canavalia ensiformis)
- Protocol summary: ConA small-molecule binders, primary screen, artefact control for SMM control protein annotation, biochemical, small-molecule microarray, Alexa647 label, 635 nm (AID 1127);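 also: z combines 667 nm emission intensity with signal-to-noise across three replicate slides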
- Experimental context: ConA-A647 binding fluorescence, higher = more signal
Measurement name: composite z-score

1. C=CCOC(=O)[C@H]1[C@@H]2C(=O)O[C@@H](c3ccccc3)[C@@H](c3ccccc3)N2[C@@H](c2ccc(OCCOC(=O)[C@@H]3C[C@@H]4C(=O)N[C@@H](CCCC[N+](C)(C)C)C(=O)N4[C@@H]3c3ccc(O)cc3)cc2)[C@]12C(=O)Nc1ccccc12 | 1.12
2. C[C@@]1([C@@H](NC(=O)c2ccccc2)c2ccc(-c3ccccc3)cc2)C[C@H]1C1CCCCC1 | -0.867
3. CC(C)(C)OC(=O)CC[C@@]1(C(N)=O)N=C(c2ccc(OCCCO)cc2)O[C@@H]1c1ccccc1 | 0.722

Data provenance is PubChem BioAssay.
